Experiment: yeast display, Sf9 membrane polyspecificity reagent, FACS + sequencing; frameworks hold sequencing errors

| SEQ STRING | polyreactivity (PSR sort gate) |
| --- | --- |
| QVQLVESGGGIVQAGGSLRLSCAASGRTFTYNAMGRYRQAPGKERELVAAITYRGGSTYYADSVKGRFTISRDNAKNTVYLQMNSLKPEDTAVYYCAARVSYYRYNTPHYYYWGQGTQVTVSS | high polyreactivity |
| QVQLVESGGGLVQAGGSLRLSCAATGIISQYYAMGWYRQQPGKESELDAAISRSGGSTFYADSVKGRFTISRDNAQNTVYLQMNSLKPEDTAVYYCNAESRFRPYTSRYDYWGQGTQVTVSS | high polyreactivity |

====

Assay: yeast display, Sf9 membrane polyspecificity reagent, FACS + sequencing; frameworks hold sequencing errors
PROPERTY LABEL: polyreactivity (PSR sort gate)

Examples with their reported polyreactivity (PSR sort gate) follow.
| SEQ STRING | PROPERTY LABEL | READING |
| --- | --- | --- |
| QVQLVESGGGLVQAGGSLRLSCAASGSTFWLYAMGWYRQAPGKEREFVATISSSTTYYADSVKGRFTISRDNAKNTVYFQMNSLKPQDTAVYYCNAADYYSDVWSSVDYEGDYWGQGTQVTVSS | polyreactivity (PSR sort gate) | low polyreactivity |
| QVQLVESGGGLVQAGGSLRLSCAASGSTFSSYAMGWYRQAPGKERELVAGISWGGSSTDYADSVKGRFTISRDNAKNTVYLQMNSLKPEDTAVYYCARRYRRGWSTLDYWGQGTQVTVSS | polyreactivity (PSR sort gate) | low polyreactivity |
| QVQLVESGGGLVQAGGSLRLSCAASGRISYGNGMGWYIQAPGKERELVAAISWSTTRTYYADSVKGRFTISRDYAKNTVYLQMNSLKPEDTAVYYCNAAGRPYDFSGGRTMEYWGQGTQVTVSS | polyreactivity (PSR sort gate) | high polyreactivity |
| QVQLVESGGGLVQAGGSLRLSCAASGSIFSFYAMGWYRQAPGKERELVADISLTTDSTYADSVKGRFTISRDNAKNTVYLQMNSLKPEDTAVYYCAADGSNWEYDYWGQGTQVTVSS | polyreactivity (PSR sort gate) | low polyreactivity |
| QVQLVESGGGIVQAGGSLRLSCAASGFICGHYTMGWYRQAPGKERELVAAITTGGRTYYADSVKGRFTISRDNGKNTVYLQMISLKPEDTAVYYCAARGYIWGQGTPVTVSS | polyreactivity (PSR sort gate) | high polyreactivity |
| QVQLVESGGGLVQSGGSLRLICAASGRTSLNYAMGWYRQAPGKEMELVAAITRGGGGTYYADSVKGRFTISRDNAKNTVYFQMNSLKPEDTAVYYCAREHKRGGYGYWGQGTQVTVSS | polyreactivity (PSR sort gate) | high polyreactivity |
| QVQRVESGGCLVQAGGSLRLSCAASGIIFGDNVRGWYRQSPGKERQLVAAITSDGSTNYADSVKGRFTISSDNEKNNVYLQMNSLKPEDTAVYYCNVSASYYSPDPKVLVRYDYWGQGSQVTVSS | polyreactivity (PSR sort gate) | low polyreactivity |
| QVQLVESGGGLVQAGGSLRLSCAASGSTFYANAMGWYRQAPGKERELVATINRRGNKYYADSVKGRFTISRDHAKNTVYLQMNSLKPEDTAVYYCAADAWVGWHDEYDYWGQGTQVTVSS | polyreactivity (PSR sort gate) | low polyreactivity |
| QVQLVESGGGLVQAGGSLRLSCAASGRIFISNAMGWYRQAPGKERELVAAISWRGTRTYYADSVKGRFTISRENAKNTVYLEMNSLKPEVTAVYYCNADRHRSRGMDYWGQGTQVTVSS | polyreactivity (PSR sort gate) | high polyreactivity |
| QVQLVESGGGLVQAGGSLRLSCAASGITFVDYVMGWYRQAPGKERELVAAISRGGSRTKYADSVKGRFTISRDNAKNTVYLQMNSLKPEDTAVYYCAAPWLVNHYYPSQEYDYWGQGTQVTVSS | polyreactivity (PSR sort gate) | high polyreactivity |

Request: Tell me polyreactivity (PSR sort gate) reported for QVQLVESGGGLVQAGGSLRLSCAASGSIFYANAMGWYRQAPGKERELVAAISRSGGRTYYADSVKGRFTISRDNAKNTVYLQMNSLKPEDTAVYYCNAVYVSYTYQQTRSGGYDYWGQGTQVTVSS
Response: high polyreactivity
